Cited source for all entries: patent US20240343803A1

Biological target: T1, human PVRIG-his (AcroBiosystems, Cat NO. PVG-H52H4) (human, UniProt Q6DKI7 41-171, limits assumed)
T1 construct: also called human PVRIG protein
T1 sequence (looked up): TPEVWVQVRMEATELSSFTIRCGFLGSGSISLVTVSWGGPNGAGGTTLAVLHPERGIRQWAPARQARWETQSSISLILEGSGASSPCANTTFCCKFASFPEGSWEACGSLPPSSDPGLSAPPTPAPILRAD
Assay: SPR (BIAcore), antibody captured on Protein A chip, human PVRIG-His analyte
Kindly state koff for each of the entries shown.

Below: 2 binders and their reported koff.
SRF813-hIgG1 (antibody, V domains shown, positive control; human IgG1 format) VH: QVQLVQSGAEVKKPGSSVKVSCKASGGTFSSAAISWVRQAPGQGLEWMGNIIPIVGIANYAQKFQGRVTITADESTSTAYMELSSLRSEDTAVYYCARDTGRGYTRHFWFDPWGQGTLVTVSS VL: DIQMTQSPSSLSASVGDRVTITCRASQSISSYLNWYQQKPGKAPKLLIYAASSLQSGVPSRFSGSGSGTDFTLTISSLQPEDFATYYCQQSDILYTFGGGTKVEIK
0.000317 s⁻¹
COM701-hIgG1 (antibody, V domains shown, positive control; human IgG1 format) VH: QVQLVQSGAEVKKPGASVKVSCKASGYTFTDYNINWVRQAPGQGLEWMGYIYPYIGGSGYAQKFQGRVTMTRDTSTSTVYMELSSLRSEDTAVYYCAREDKTARNAMDYWGQGTLVTVSS VL: DIQMTQSPSSLSASVGDRVTITCRVSENIYSNLAWYQQKPGKAPKLLIYEATNLAEGVPSRFSGSGSGTDFTLTISSLQPEDFATYYCQHFWGTPYTFGQGTKLEIK
0.000651 s⁻¹

// switching to the query binder
What the record says about PVRIG-A50 (Fc fusion, heavy chain antibody VHH-hinge-CH2-CH3, human IgG1 constant part; also called PVRIG-50; not shown: human IgG1 hinge-CH2-CH3) EVQLVESGGGLVQPGGSLRLSCAASGFTFSYYDMSWVRQAPGKGLEWVSTINSNGGRTSYVDSVKGRFTISRDNTKNTLYLQMNSLKPEDTAVYYCVEGDPHNFGLENLSLRDFGSWGQGTQVTVSS : koff is 1.29e-05 s⁻¹
